- TARGET: CFTR channel in human colonic T84 cells (Homo sapiens)
- Construct: results in the phosphorylation and opening of CFTR anion channels; host or cells: human colonic T84 cells
- Sequence (P13569 whole entry): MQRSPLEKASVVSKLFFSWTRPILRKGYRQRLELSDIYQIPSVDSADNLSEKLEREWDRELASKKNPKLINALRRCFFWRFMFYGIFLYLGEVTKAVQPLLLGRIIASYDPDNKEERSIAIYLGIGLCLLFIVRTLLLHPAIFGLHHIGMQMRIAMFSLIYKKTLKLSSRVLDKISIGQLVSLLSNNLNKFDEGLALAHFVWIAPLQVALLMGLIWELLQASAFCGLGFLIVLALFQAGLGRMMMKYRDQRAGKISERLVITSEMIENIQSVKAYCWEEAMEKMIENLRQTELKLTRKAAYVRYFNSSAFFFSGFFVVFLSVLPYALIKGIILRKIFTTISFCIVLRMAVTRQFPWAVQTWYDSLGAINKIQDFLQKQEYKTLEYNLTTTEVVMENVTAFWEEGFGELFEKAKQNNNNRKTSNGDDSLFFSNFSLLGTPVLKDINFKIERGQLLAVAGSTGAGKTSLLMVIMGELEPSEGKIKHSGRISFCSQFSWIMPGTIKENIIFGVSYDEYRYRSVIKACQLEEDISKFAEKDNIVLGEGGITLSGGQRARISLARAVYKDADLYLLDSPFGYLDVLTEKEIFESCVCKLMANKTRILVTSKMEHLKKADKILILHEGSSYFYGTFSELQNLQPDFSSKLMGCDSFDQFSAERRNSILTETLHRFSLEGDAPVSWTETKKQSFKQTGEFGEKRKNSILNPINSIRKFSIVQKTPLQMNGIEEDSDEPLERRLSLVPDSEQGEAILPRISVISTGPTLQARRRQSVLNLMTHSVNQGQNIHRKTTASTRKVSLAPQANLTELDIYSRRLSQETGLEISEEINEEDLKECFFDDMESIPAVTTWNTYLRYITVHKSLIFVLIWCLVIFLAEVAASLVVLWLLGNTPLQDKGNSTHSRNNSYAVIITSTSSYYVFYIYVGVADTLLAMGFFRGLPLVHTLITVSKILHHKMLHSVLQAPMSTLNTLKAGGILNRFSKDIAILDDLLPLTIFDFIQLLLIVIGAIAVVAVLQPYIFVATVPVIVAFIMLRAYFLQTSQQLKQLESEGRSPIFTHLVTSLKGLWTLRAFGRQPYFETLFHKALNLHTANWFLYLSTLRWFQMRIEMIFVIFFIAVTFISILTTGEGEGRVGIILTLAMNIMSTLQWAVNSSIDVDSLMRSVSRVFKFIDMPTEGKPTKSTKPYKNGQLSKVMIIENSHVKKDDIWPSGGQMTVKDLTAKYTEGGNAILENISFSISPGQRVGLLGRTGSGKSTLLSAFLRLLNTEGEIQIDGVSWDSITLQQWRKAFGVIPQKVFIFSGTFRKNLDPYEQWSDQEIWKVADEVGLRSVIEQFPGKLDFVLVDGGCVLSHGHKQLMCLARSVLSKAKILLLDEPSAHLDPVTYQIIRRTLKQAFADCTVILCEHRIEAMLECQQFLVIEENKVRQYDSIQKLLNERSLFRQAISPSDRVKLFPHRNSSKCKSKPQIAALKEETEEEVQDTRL
- ASSAY TEXT: T84 assay (FLIPR membrane potential dye, forskolin/IBMX-stimulated CFTR)
- Type: cell-based
- APPLIED CONDITIONS: average of at least 2 runs unless annotated n = 1
Where a name gives a salt, the structure may show the parent alone.
READOUT LABEL: IC50 (µM)

- COMPOUND: "Oc1c(Br)cc(-c2cnc(-c3cccc(Oc4ccccc4)c3)nn2)cc1Br"
  READOUT LABEL: "IC50"
  UNIT TAG: "µM"
  TEST VALUE: 24.8
- COMPOUND: "Oc1c(Br)cc(-c2cnc(OCc3cc(Br)cs3)nn2)cc1Br"
  READOUT LABEL: "IC50"
  UNIT TAG: "µM"
  TEST VALUE: 0.44
- COMPOUND: "O=C(COc1ccccc1)N1CCN(Cc2ccc(COc3ncc(-c4cc(Cl)c(O)c(Cl)c4)nn3)cc2)CC1"
  READOUT LABEL: "IC50"
  UNIT TAG: "µM"
  TEST VALUE: 4.95
- COMPOUND: "CN(Cc1ccc(COc2ncc(-c3cc(Cl)c(O)c(Cl)c3)nn2)cc1)C(CN1CCOCC1)c1ccccc1 (stereo not shown)"
  READOUT LABEL: "IC50"
  UNIT TAG: "µM"
  TEST VALUE: 5.89
- COMPOUND: "Cc1cc(OCc2ncc(-c3cc(Br)c(O)c(Br)c3)nn2)cc(C)c1Br"
  READOUT LABEL: "IC50"
  UNIT TAG: "µM"
  TEST VALUE: 22
- COMPOUND: "CN(Cc1ccc(COc2ncc(-c3cc(Cl)c(O)c(Cl)c3)nn2)cc1)Cc1cccc(-c2ncccn2)c1"
  READOUT LABEL: "IC50"
  UNIT TAG: "µM"
  TEST VALUE: 4.18
- COMPOUND: "CC(C)(C)OC(=O)N1CCN(Cc2ccc(COc3ncc(-c4cc(Cl)c(O)c(Cl)c4)nn3)cc2)CC1 [Compound 145, ammonium salt]"
  READOUT LABEL: "IC50"
  UNIT TAG: "µM"
  TEST VALUE: 1.55
- COMPOUND: "Cc1cncc(Oc2cccc(CN(C)Cc3ccc(COc4ncc(-c5cc(Cl)c(O)c(Cl)c5)nn4)cc3)c2)n1"
  READOUT LABEL: "IC50"
  UNIT TAG: "µM"
  TEST VALUE: 2.43
- COMPOUND: "Oc1c(Br)cc(-c2cnc(OCc3ccc(F)cc3Cl)nn2)cc1Br"
  READOUT LABEL: "IC50"
  UNIT TAG: "µM"
  TEST VALUE: 0.77
- COMPOUND: "Oc1c(Br)cc(-c2cnc(OCc3c(Cl)cc(Cl)cc3Cl)nn2)cc1Br"
  READOUT LABEL: "IC50"
  UNIT TAG: "µM"
  TEST VALUE: 2.33
- COMPOUND: "Oc1c(Cl)cc(-c2cnc(OCc3cccc(Cl)c3Cl)nn2)cc1Cl"
  READOUT LABEL: "IC50"
  UNIT TAG: "µM"
  TEST VALUE: 3.36
- COMPOUND: "CN1CCCN(Cc2ccc(CN(C)Cc3ccc(COc4ncc(-c5cc(Cl)c(O)c(Cl)c5)nn4)cc3)cc2)CC1"
  READOUT LABEL: "IC50"
  UNIT TAG: "µM"
  TEST VALUE: 9.99
- COMPOUND: "CN(Cc1ccc(COc2ncc(-c3cc(Cl)c(O)c(Cl)c3)nn2)cc1)Cc1cccc(Cl)c1Cl"
  READOUT LABEL: "IC50"
  UNIT TAG: "µM"
  TEST VALUE: 14.6
- COMPOUND: "CC(Oc1ncc(-c2cc(Br)c(O)c(Br)c2)nn1)c1cccc(Cl)c1 (stereo not shown)"
  READOUT LABEL: "IC50"
  UNIT TAG: "µM"
  TEST VALUE: 0.84
- COMPOUND: "Oc1c(Br)cc(-c2cnc(OCCc3ccc(Cl)cc3)nn2)cc1Br"
  READOUT LABEL: "IC50"
  UNIT TAG: "µM"
  TEST VALUE: 0.17
- COMPOUND: "CN1CCN(CC(NCc2ccc(COc3ncc(-c4cc(Cl)c(O)c(Cl)c4)nn3)cc2)c2ccccc2)CC1 (stereo not shown)"
  READOUT LABEL: "IC50"
  UNIT TAG: "µM"
  TEST VALUE: 7.47
